system: Fer (mouse); test: phosphorylation enrichment, bacterial display (enrichment ratio); higher = better substrate or ligand; peptides without Tyr show the background;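 note: 11-residue human phosphosite peptides and single-mutation variants displayed on the E. coli surface, counted by deep sequencing, each peptide's frequency after selection divided by its frequency in the unselected input library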;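 note: frequency after pTyr selection over input frequency; kinase dosed for 20-30% of maximal phosphorylation in three min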
Catalogue of sequences with associated phosphorylation enrichment
Value kind: phosphorylation enrichment

>>> df
                         sequence_entry                  value_kind  data_value
 0     MRALIYNSSTV [PLEKHA7_Y243_A248V]  phosphorylation enrichment        0.51
 1              RVNSAYQDKVS [ACAN_Y100]  phosphorylation enrichment       0.437
 2        NYYDLYGGEKF [PTPN11_Y66_D61N]  phosphorylation enrichment        2.32
 3         HRERPYGGGGG [FUS_Y526_R521H]  phosphorylation enrichment       0.407
 4           ARTNEYKIIRS [INA_Y87_T92S]  phosphorylation enrichment        0.33
 5           NPQKSYFILLY [WAS_Y83_R86L]  phosphorylation enrichment       0.437
 6          GGQVFYNSEFG [FLT4_Y1333_YF]  phosphorylation enrichment        0.53
 7         EMFNPYFGLFE [NEDD4L_Y679_YF]  phosphorylation enrichment        2.66
 8           PFSNPYENSLI [EPOR_Y489_YF]  phosphorylation enrichment        2.23
 9     HNLYSYPTKYE [MYO3A_Y1396_H1400Y]  phosphorylation enrichment          17
10              RWHEGYRQTPK [CD44_Y412]  phosphorylation enrichment       0.367
11       NDHHFYLEGTL [ALDOB_Y223_V222F]  phosphorylation enrichment       0.498
12            HPWPQYTTRAP [FNDC1_Y1281]  phosphorylation enrichment       0.454
13     AARVSYWLASG [DCHS1_Y1582_R1583W]  phosphorylation enrichment       0.634
14       CFTRQYTLPPG [HSPB1_Y142_K141Q]  phosphorylation enrichment       0.496
15        HNQDGYSYLSR [LDLR_Y845_P848L]  phosphorylation enrichment       0.522
16          SPDMLYQFLKQ [RPAP3_Y567_YF]  phosphorylation enrichment        7.72
17              GAVGNYSGGLA [MGMT_Y158]  phosphorylation enrichment       0.483
18             KIKGWYEKCEP [KRT26_Y119]  phosphorylation enrichment       0.541
19       HELYVYKSDEN [DOCK3_Y548_C550S]  phosphorylation enrichment       0.879
20               EVDETYVPKEF [ALB_Y521]  phosphorylation enrichment       0.605
21         PELINYHQHYS [BTK_Y361_N365Y]  phosphorylation enrichment       0.427
22     LFMGDYVGRGF [PPP2CA_Y86_D88G_YF]  phosphorylation enrichment       0.412
23          RFLRGYRQDAF [HLA-A_Y137_YF]  phosphorylation enrichment       0.658
24            WFKKFYDANYD [MAPRE2_Y158]  phosphorylation enrichment       0.398
25    EVEPTYVVLFD [ERCC4_Y577_R576T_YF]  phosphorylation enrichment        1.08
26               RHTRSYDYMEG [FGF7_Y56]  phosphorylation enrichment       0.533
27        SLEKSYELLDG [ACTB_Y240_P243L]  phosphorylation enrichment       0.705
28              NDDDVYRSLEE [VAV2_Y142]  phosphorylation enrichment       0.526
29         MLEVPYVDHNS [F10_Y384_R387H]  phosphorylation enrichment       0.583
30  RQNNSYTCFTA [SLC20A2_Y386_R382Q_YF]  phosphorylation enrichment       0.751
31          AHPGEYGAEAL [HBA1_Y25_A22P]  phosphorylation enrichment       0.425
32              KSPGEYVNIEF [IRS1_Y896]  phosphorylation enrichment       0.505
33         NSVLVYRNGDP [DCDC2_Y22_K17N]  phosphorylation enrichment       0.373
34       NVADHYGVFKP [ATP6V0D2_Y271_YF]  phosphorylation enrichment       0.455
35       VDTGVYAVPPP [BCAR1_Y410_S407T]  phosphorylation enrichment        5.77
36    SIKDKHVTALF [KCNH2_Y611_Y611H_YF]  phosphorylation enrichment       0.399
37     EQKKYYNATKK [SCN5A_Y1495_M1498T]  phosphorylation enrichment       0.407
38               EDDPEYMRLRN [ADD2_Y31]  phosphorylation enrichment       0.589
39        RLQAAYNLVKR [PFKM_Y103_R100Q]  phosphorylation enrichment       0.494
40         VMAVAYRLAEQ [HK1_Y461_T457M]  phosphorylation enrichment       0.491
41      TYAVSYLPDMS [FLNC_Y1602_T1599A]  phosphorylation enrichment       0.575
42       LITILYIGFLG [KCNQ1_Y267_T265I]  phosphorylation enrichment       0.895
43         PLGVPYLDKPP [JMJD7_Y31_A28G]  phosphorylation enrichment       0.574
44          TNDRLYLRSLE [MTM1_Y71_Y68D]  phosphorylation enrichment       0.411
45    EFFENYIEELK [PARP4_Y218_F215Y_YF]  phosphorylation enrichment       0.532
46    ATQDNYVLEVR [PTPRZ1_Y2179_D2178N]  phosphorylation enrichment       0.486
47    GDFFCYLAEVA [YWHAG_Y133_R132C_YF]  phosphorylation enrichment       0.865
48         DEEFEYMNRRR [ERBB3_Y1199_YF]  phosphorylation enrichment       0.474
49             KTDVHYRSLGG [DYSF_Y1858]  phosphorylation enrichment       0.335
50              GAEIVYKSPVV [MAPT_Y711]  phosphorylation enrichment       0.416
51         RNFDTYTAGLS [RHBDD1_Y264_YF]  phosphorylation enrichment       0.394
52           QDRTFYESVRT [SPEN_Y633_YF]  phosphorylation enrichment        8.88
53           EVEFQYPFRLH [SYP_Y73_E72Q]  phosphorylation enrichment       0.524
54            FLQEIYNSNNQ [FGG_Y140_YF]  phosphorylation enrichment        0.63
55        HSSPVYVGRVV [TGM2_Y219_R214H]  phosphorylation enrichment        1.63
56        SLESAYPEVSQ [TTF1_Y357_G360V]  phosphorylation enrichment         0.4

----------
target: MERTK (UniProt Q12866); experiment: phosphorylation enrichment, bacterial display (enrichment ratio); higher = better substrate or ligand; peptides without Tyr show the background
Sequence (Q12866 whole entry, looked up): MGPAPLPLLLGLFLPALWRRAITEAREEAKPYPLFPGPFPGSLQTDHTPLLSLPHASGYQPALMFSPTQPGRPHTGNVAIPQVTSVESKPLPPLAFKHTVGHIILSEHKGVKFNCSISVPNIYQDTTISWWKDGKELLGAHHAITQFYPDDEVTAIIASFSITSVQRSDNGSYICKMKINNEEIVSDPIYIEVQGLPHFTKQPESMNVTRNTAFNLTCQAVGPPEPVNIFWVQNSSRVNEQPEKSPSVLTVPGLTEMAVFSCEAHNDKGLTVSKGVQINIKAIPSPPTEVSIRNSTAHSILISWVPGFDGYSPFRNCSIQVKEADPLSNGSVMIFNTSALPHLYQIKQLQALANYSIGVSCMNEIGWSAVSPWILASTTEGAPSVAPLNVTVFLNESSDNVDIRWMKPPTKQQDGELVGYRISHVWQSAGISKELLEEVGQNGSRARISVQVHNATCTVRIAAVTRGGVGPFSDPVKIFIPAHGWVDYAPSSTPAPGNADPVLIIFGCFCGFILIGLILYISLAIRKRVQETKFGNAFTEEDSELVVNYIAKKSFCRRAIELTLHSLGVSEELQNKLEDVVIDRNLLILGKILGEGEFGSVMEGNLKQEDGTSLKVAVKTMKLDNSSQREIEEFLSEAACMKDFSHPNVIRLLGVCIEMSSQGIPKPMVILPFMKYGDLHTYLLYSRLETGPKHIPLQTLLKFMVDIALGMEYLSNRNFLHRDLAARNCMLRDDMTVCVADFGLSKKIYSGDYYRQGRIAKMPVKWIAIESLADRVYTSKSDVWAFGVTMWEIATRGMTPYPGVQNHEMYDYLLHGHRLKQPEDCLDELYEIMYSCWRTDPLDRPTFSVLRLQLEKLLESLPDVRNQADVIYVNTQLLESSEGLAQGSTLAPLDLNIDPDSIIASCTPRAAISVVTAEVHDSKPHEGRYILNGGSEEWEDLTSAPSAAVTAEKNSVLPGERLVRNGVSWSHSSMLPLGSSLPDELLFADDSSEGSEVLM
Use true (1) when the recorded phosphorylation enrichment is no lower than 0.5; use false (0) when it is lower.

                        sequence_entry  discrete_label
 0              EDDPEYMRLRN [ADD2_Y31]       false (0)
 1            RGRKVYLEDGF [PRIM2_Y201]        true (1)
 2       DYTEAYNSKIK [CLK1_Y305_P307S]       false (0)
 3      SLIEHYEPSET [PLCD1_Y258_R257H]       false (0)
 4            MPLTEYLKRIK [CNGB3_Y200]       false (0)
 5            ANAYIYVVQLP [L1CAM_Y420]        true (1)
 6      NDHHFYLEGTL [ALDOB_Y223_V222F]       false (0)
 7        WNDLDYVDSRR [GAA_Y407_M408V]       false (0)
 8        RNLLIYTEFGK [HGD_Y166_G161R]        true (1)
 9   GDFFCYLAEVA [YWHAG_Y133_R132C_YF]        true (1)
10         GQSKGYRPKLY [SIPA1L3_Y1376]       false (0)
11  HSKGIYFVQLE [MGAT4B_Y262_Q257H_YF]        true (1)
12       EATKGHLDDPT [G6PD_Y322_Y322H]       false (0)
13    SSEFHCVGGFF [CTSC_Y347_Y347C_YF]       false (0)
14   FKPGFYNLKEK [LAMA1_Y490_C485Y_YF]        true (1)
15     VVPGSYDRLRV [IFT172_Y260_L257P]       false (0)
16      DLQDEYDFKRK [STAT1_Y170_C174R]       false (0)
17           RRGTGYTLSLP [MAGEC3_Y152]        true (1)
18       TGVWDYIHVVD [GALE_Y241_R239W]       false (0)
19       QAIDEYEKWLE [MAP9_Y603_N601D]        true (1)
20            AAYNRYDQERF [CDC73_Y293]        true (1)
21       ESVNTYLQTSP [NAT1_Y208_M205V]        true (1)
22            IKELTYQTEED [MYH7_Y1852]       false (0)
23      NARGLYYKLHN [GATA2_Y376_C373R]        true (1)
24              ELELLYLDRNS [NYX_Y284]       false (0)
25             SLIDGYYRLTA [JAK2_Y372]       false (0)
26        ALAHEYHGGGG [HBB_Y146_K145E]       false (0)

Entry source: the supplement of paper PMC10065799
